Listing of Ki toward Muscarinic acetylcholine receptor M2 (Homo sapiens), each taken from a published source.
readout-name: Ki (nM)

Previously resolved entries follow.
>  <compound>
NCC[C@H](Oc1ccc(C(F)(F)F)cc1)c1ccccc1

>  <Ki [nM]>
810

$$$$
>  <compound>
Cc1nccn1CC#CCOc1ccon1

>  <Ki [nM]>
282

$$$$
>  <compound>
Cc1nccn1CC#CCOC1=NOCC1

>  <Ki [nM]>
3.63

$$$$
>  <compound>
CCN(CC)CC1CCCCN1CC(=O)N1c2ccccc2NC(=O)c2ccccc21 (single isomer, unassigned; (+))

>  <Ki [nM]>
55

$$$$
>  <compound>
Cc1n(CC#CCOc2ccon2)cc[n+]1-c1ccc(Br)cc1

>  <Ki [nM]>
112

$$$$

[I] C=C[C@@H]1CN2CC[C@H]1C[C@@H]2[C@H](O)c1ccnc2ccc(OC)cc12
[II] CN(CCCN1c2ccccc2CCc2ccccc21)CC(=O)c1ccc(Cl)cc1
*Q* Param pair: I , II . Output: the one whose Ki is numerically greater. Write down the label attached to your selection.
*A* II
